Exercise: for every item that follows, state its recorded melting point.

Prompt: Complete the entry with melting point for Clc1ccc(C2=NOC(Cc3ccccc3)(c3ccccc3)C2)cc1 (stereo not shown) [Example 16]
Completion: 120.3 to 122.1 °C

Prompt: Complete the entry with melting point for COc1ccccc1C1=NOC(Cc2ccccc2)(c2ccccc2)C1 (stereo not shown) [Example 12]
Completion: 109.3 to 110.2 °C

Prompt: Complete the entry with melting point for O=[N+]([O-])c1ccc(C2=NOC(Cc3ccccc3)(c3ccccc3)C2)cc1 (stereo not shown) [Example 17]
Completion: 158 to 159.2 °C

Prompt: Complete the entry with melting point for CC1(Cc2ccccc2)CC(c2ccc3ccccc3c2)=NO1 (stereo not shown) [Example 9ab]
Completion: 144.8 to 146.3 °C

Prompt: Complete the entry with melting point for COc1cccc(C2=NOC(Cc3ccccc3)(c3ccccc3)C2)c1 (stereo not shown) [Example 13]
Completion: 94.4 to 95.2 °C

Prompt: Complete the entry with melting point for N#Cc1ccc(C2=NOC(Cc3ccccc3)(c3ccccc3)C2)cc1 (stereo not shown) [Example 18]
Completion: 104.5 to 107 °C

Prompt: Complete the entry with melting point for Oc1ccc(C2=NOC(Cc3ccccc3)(c3ccccc3)C2)cc1 (stereo not shown) [Example 80]
Completion: 151.3 to 153.9 °C

Prompt: Complete the entry with melting point for Fc1ccccc1C1=NOC(Cc2ccccc2)(c2ccccc2)C1 (stereo not shown) [Example 15ab]
Completion: 134.3 to 135.2 °C

Prompt: Complete the entry with melting point for COc1ccc(C2=NOC(Cc3ccccc3)(c3ccccc3)C2)cc1 (stereo not shown) [Example 14]
Completion: 139.3 to 141 °C

Prompt: Complete the entry with melting point for COc1ccc(C2=NOC(C)(Cc3ccccc3)C2)cc1 (stereo not shown) [Example 3ab]
Completion: 97.8 to 98.6 °C

###

Exercise: for every item that follows, state its recorded AR antagonism against 100 nM testosterone ± S.D..
experimental target: human AR (Homo sapiens, UniProt P10275)
Construct: expressed in transfected cells; host or cells: COS-1
Sequence (P10275 1-920): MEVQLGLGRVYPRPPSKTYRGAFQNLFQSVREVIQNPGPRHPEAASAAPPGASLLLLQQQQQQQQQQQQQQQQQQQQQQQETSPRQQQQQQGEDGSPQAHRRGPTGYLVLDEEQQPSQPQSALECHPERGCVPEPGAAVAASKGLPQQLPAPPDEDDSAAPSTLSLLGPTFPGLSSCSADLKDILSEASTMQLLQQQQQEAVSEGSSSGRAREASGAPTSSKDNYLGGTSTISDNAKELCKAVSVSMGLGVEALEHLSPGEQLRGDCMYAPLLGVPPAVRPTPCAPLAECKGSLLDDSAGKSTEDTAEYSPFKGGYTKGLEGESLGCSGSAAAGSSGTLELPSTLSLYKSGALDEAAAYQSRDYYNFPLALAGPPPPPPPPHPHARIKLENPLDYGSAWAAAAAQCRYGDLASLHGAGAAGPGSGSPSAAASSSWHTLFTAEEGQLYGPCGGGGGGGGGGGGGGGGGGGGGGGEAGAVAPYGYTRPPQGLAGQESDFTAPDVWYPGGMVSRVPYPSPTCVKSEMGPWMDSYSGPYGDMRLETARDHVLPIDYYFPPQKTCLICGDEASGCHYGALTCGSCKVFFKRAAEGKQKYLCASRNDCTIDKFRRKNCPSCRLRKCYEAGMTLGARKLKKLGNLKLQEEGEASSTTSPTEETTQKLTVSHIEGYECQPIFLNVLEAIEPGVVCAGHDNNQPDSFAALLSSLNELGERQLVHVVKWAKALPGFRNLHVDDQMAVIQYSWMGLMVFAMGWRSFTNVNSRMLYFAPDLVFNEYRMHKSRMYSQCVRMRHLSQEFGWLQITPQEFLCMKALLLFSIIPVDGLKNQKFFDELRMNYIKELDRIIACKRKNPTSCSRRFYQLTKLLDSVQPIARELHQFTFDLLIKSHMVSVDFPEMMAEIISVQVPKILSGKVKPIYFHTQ
procedure summary: AR antagonism assay: inhibition of transcriptional activation of AR (Probasin-luc reporter, COS-1 cells)
Assay type: cell-based
assay setup: compound 10.0 μM; relative luciferase response: 100% for testosterone (no antiandrogenic effect), 0% for complete antagonism
Answer in %, number only, no unit symbol.

Prompt: Complete the entry with AR antagonism against 100 nM testosterone ± S.D. for c1ccc2c(C3=NOC4CCCCC34)cccc2c1 (single isomer, unassigned) [Example 33a]
Completion: 40.2

Prompt: Complete the entry with AR antagonism against 100 nM testosterone ± S.D. for c1ccc2c(C3=NOC4CCCCC34)cccc2c1 (single isomer, unassigned) [Example 33b]
Completion: 100

Prompt: Complete the entry with AR antagonism against 100 nM testosterone ± S.D. for N#Cc1ccc(C2=NOC3CCCC23)cc1C(F)(F)F (single isomer, unassigned) [Example 85b]
Completion: 18.9

Prompt: Complete the entry with AR antagonism against 100 nM testosterone ± S.D. for Fc1ccc(C2=NOC3CCCCCCC23)c(C(F)(F)F)c1 (centres unmarked) [Example 44b]
Completion: 35.6

Prompt: Complete the entry with AR antagonism against 100 nM testosterone ± S.D. for O=[N+]([O-])c1ccc(C2=NOC3CCCCCCC23)c(C(F)(F)F)c1 (centres unmarked) [Example 46b]
Completion: 2.2

Prompt: Complete the entry with AR antagonism against 100 nM testosterone ± S.D. for Fc1ccc(C2=NOC3CCCCC23)c(C(F)(F)F)c1 (centres unmarked) [Example 36b]
Completion: 30.0

Prompt: Complete the entry with AR antagonism against 100 nM testosterone ± S.D. for CC(C)(O)C(=O)Nc1ccc([N+](=O)[O-])c(C(F)(F)F)c1 [Hydroxyflutamide, reference compound]
Completion: 13.0

Prompt: Complete the entry with AR antagonism against 100 nM testosterone ± S.D. for Fc1ccc(C2=NOC3CCCC23)c(C(F)(F)F)c1 (centres unmarked) [Example 20b]
Completion: 37.4

###

experimental target: human AR (Homo sapiens)
Construct: expressed in transfected cells; host or cells: COS-1
procedure summary: AR antagonism assay: inhibition of transcriptional activation of AR (Probasin-luc reporter, COS-1 cells)
Format: cell-based
assay setup: compound 10.0 μM; relative luciferase response: 100% for testosterone (no antiandrogenic effect), 0% for complete antagonism
Dear colleague, classification is by AR antagonism against 100 nM testosterone ± S.D., with ranges listed here: bottom (below 20%), middle (20% to below 40%), top (40% or more)

Prompt: Into which category would you place N#Cc1ccc(C2=NOC3CCCC23)cc1C(F)(F)F (single isomer, unassigned) [Example 85a] ?
Completion: top

Prompt: Into which category would you place O=[N+]([O-])c1ccc(C2=NOC3CCCCCC23)c(C(F)(F)F)c1 (stereo not drawn) [Example 42b] ?
Completion: middle

Prompt: Into which category would you place O=[N+]([O-])c1ccc(C2=NOC3CCCCC23)c(C(F)(F)F)c1 (single isomer, unassigned) [Example 38a] ?
Completion: bottom

Prompt: Into which category would you place N#Cc1ccc(C2=NOC3CCCCCC23)c(C(F)(F)F)c1 (stereo not drawn) [Example 91b] ?
Completion: middle

Prompt: Into which category would you place N#Cc1cccc(C2=NOC3CCCCC23)c1C(F)(F)F (single isomer, unassigned) [Example 94a] ?
Completion: bottom

Prompt: Into which category would you place O=[N+]([O-])c1ccc(C2=NOC3CCCCC23)c(C(F)(F)F)c1 (single isomer, unassigned) [Example 38b] ?
Completion: top

Prompt: Into which category would you place Clc1ccc(C2=NOC3CCCCC23)cc1 (single isomer, unassigned) [Example 32b] ?
Completion: top

Prompt: Into which category would you place Fc1ccc(C2=NOC3CCCCCC23)c(C(F)(F)F)c1 (stereo not drawn) [Example 40b] ?
Completion: bottom

Prompt: Into which category would you place N#Cc1ccc(C2=NOC3CCCCCCC23)c(C(F)(F)F)c1 (single isomer, unassigned) [Example 93a] ?
Completion: bottom

Prompt: Into which category would you place N#Cc1cccc(C2=NOC3CCCCC23)c1C(F)(F)F (single isomer, unassigned) [Example 94b] ?
Completion: bottom

Prompt: Into which category would you place N#Cc1cccc(C2=NOC3CCCCCC23)c1C(F)(F)F (stereo not drawn) [Example 95b] ?
Completion: bottom

Prompt: Into which category would you place O=[N+]([O-])c1ccc(C2=NOC3CCCC23)cc1C(F)(F)F (single isomer, unassigned) [Example 21b] ?
Completion: middle

Prompt: Into which category would you place Fc1ccc(C2=NOC3CCCCCCC23)cc1C(F)(F)F (stereo not drawn) [Example 43b] ?
Completion: top

Prompt: Into which category would you place N#Cc1ccc(C2=NOC3CCCCCCC23)c(C(F)(F)F)c1 (single isomer, unassigned) [Example 93b] ?
Completion: top

Prompt: Into which category would you place N#Cc1ccc(C2=NOC3CCCCC23)cc1C(F)(F)F (stereo not drawn) [Example 88ab] ?
Completion: bottom

###

experimental target: human AR (Homo sapiens, UniProt P10275)
Construct: expressed in transfected cells; host or cells: COS-1
Sequence (P10275 1-920): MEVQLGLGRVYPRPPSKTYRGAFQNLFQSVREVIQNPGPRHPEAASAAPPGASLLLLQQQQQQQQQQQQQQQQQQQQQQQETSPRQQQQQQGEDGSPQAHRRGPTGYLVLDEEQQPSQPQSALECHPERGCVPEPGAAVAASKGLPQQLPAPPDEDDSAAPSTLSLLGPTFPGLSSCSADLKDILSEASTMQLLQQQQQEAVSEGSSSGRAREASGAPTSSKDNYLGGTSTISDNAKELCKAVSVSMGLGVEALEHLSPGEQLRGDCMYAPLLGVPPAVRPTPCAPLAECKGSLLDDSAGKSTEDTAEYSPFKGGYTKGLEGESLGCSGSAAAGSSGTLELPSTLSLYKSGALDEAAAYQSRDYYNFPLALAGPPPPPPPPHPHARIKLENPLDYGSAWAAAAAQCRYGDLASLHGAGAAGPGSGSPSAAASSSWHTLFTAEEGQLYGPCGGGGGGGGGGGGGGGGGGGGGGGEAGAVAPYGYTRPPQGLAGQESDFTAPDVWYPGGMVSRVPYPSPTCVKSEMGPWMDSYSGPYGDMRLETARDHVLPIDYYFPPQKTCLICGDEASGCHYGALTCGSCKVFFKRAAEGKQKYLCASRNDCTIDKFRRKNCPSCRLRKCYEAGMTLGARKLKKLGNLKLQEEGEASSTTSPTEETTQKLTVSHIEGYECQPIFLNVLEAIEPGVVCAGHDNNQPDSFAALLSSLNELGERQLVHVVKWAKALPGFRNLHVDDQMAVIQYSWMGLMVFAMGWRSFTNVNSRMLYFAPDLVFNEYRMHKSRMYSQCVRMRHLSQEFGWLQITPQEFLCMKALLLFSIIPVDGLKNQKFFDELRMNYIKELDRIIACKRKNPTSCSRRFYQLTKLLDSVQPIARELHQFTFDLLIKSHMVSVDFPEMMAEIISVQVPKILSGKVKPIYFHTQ
procedure summary: AR antagonism assay: inhibition of transcriptional activation of AR (Probasin-luc reporter, COS-1 cells)
Format: cell-based
assay setup: COS-1, 18 h, compound 10.0 μM; relative luciferase response: 100% for testosterone (no antiandrogenic effect), 0% for complete antagonism; read-out: AR antagonism against 100 nM testosterone ± S.D.
Binary label based on remaining activity at 10 µM with cut-off 40%: below gives t, not below gives f.

Prompt: Could you please tell me whether remaining activity at 10 µM recorded for O=[N+]([O-])c1ccc(C2=NOC3CCCCCC23)cc1C(F)(F)F (centres unmarked) [Example 41ab] is less than 40%?
Completion: t

Prompt: Could you please tell me whether remaining activity at 10 µM recorded for O=[N+]([O-])c1ccc(C2=NOC3CCCC23)c(C(F)(F)F)c1 (centres unmarked) [Example 22ab] is less than 40%?
Completion: t

Prompt: Could you please tell me whether remaining activity at 10 µM recorded for O=[N+]([O-])c1ccc(C2=NOC3CCCCCCC23)cc1C(F)(F)F (centres unmarked) [Example 45ab] is less than 40%?
Completion: t

Prompt: Could you please tell me whether remaining activity at 10 µM recorded for Fc1ccc(C2=NOC3CCCCCC23)cc1C(F)(F)F (centres unmarked) [Example 39ab] is less than 40%?
Completion: f
